Assay: log P determination by HPLC on reversed-phase columns (C 18), analogous to OECD Guideline 117
Type: physicochemical
Conditions: reversed-phase C18 HPLC column; neutral range, pH 7.8, 0.001 molar aqueous ammonium hydrogencarbonate and acetonitrile; read-out: logP(neutral)
Protocol: The log P values were determined analogously to OECD Guideline 117 (EC Directive 92/69/EEC) by HPLC (high-performance liquid chromatography) using reversed-phase columns (C 18), by the following methods: [a] The LC-MS determination in the acidic range was effected at pH 2.7 with 0.1% aqueous formic acid and acetonitrile (contains 0.1% formic acid) as eluents; linear gradient from 10% acetonitrile to 95% acetonitrile. log P^[a] is also referred to as log P(HCOOH). [b] […]
Recorded endpoint: chromatographic logP

> print(dat)
                                   compound  experimental.result
1  Cc1cc(F)c(-n2c(C)nc3ncccc3c2=O)cc1[S+]([O-])CC(F)(F)F (stereo not drawn)                 1.64
2                       Cc1nc2ncccc2c(=O)o1                 0.43
3  Cc1cc(F)c(-n2cnc3ncccc3c2=O)cc1[S+]([O-])CC(F)(F)F (stereo not drawn)                 1.56
4  Cc1cc(F)c(-n2c(C)nc3ncccc3c2=O)cc1SCC(F)(F)F                 2.52
5   Cc1cc(F)c(NC(=O)c2cccnc2N)cc1SCC(F)(F)F                 2.71
6  Cc1cc(F)c(-n2cnc3ncccc3c2=O)cc1SCC(F)(F)F                 2.43
